# System: Saccharomyces cerevisiae lifespan shortening, growth inhibition
# assay_comment: yeast lifespan shortening compounds, dose response (AID 849);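 also: yeast growth read as optical density after two days at 30 degrees C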
The source made the active and inactive calls. No rule for the calls is given here.
readout_name: IC50

- compound: "c1ccc(-c2nc(-n3ccnc3)nc(-n3ccnc3)n2)cc1"
  readout_value: "34.3 µM"
- compound: "COc1ccc(OCc2nnc3n2N=C(c2ccc(OC)cc2)CS3)cc1"
  readout_value: "> 100 µM (inactive)"
- compound: "S=C(NCc1ccc(Cl)cc1)NC12CC3CC(CC(C3)C1)C2"
  readout_value: "> 100 µM (inactive)"
- compound: "O=C(Nc1nc(-c2ccccn2)cs1)c1ccc(Br)s1"
  readout_value: "9.04 µM"
- compound: "C=CCNC(=S)N/N=C(\\C)c1ccccn1"
  readout_value: "17.6 µM"
- compound: "CC(=O)N1CCN(c2ccc(OC[C@H]3CO[C@](Cn4ccnc4)(c4ccc(Cl)cc4Cl)O3)cc2)CC1"
  readout_value: "9.27 µM"
- compound: "Cn1c(SCC(=O)N/N=C/c2ccc([N+](=O)[O-])s2)nnc1-c1ccc(Cl)cc1"
  readout_value: "25.3 µM"
- compound: "CC1(CCc2ccccc2)NC(=S)N(c2ccc(Cl)cc2)N1 (centres undefined)"
  readout_value: "42 µM"
- compound: "COc1ccc(NC(=O)C2CCCN2S(=O)(=O)c2cccc3cccnc23)c(OC)c1 (centres undefined)"
  readout_value: "40.5 µM"
- compound: "CC1CCCC2(C1)NC(=S)N(c1ccccc1)N2 (centres undefined)"
  readout_value: "38.2 µM"
- compound: "Cc1cc(C)nc(N/N=C/C2=C(N3CCOCC3)C(=C\\c3ccc(Cl)cc3)/CC2)n1"
  readout_value: "> 100 µM (inactive)"
- compound: "COC(=O)c1ccc(CSc2ccc3nnc(-c4cccc(F)c4)n3n2)o1"
  readout_value: "> 100 µM (inactive)"
- compound: "Oc1ccc2ccccc2c1N=Nc1ccccn1"
  readout_value: "35.2 µM"
- compound: "COc1ccc2nc(/N=C(\\N)NC(=O)Nc3ccccc3)nc(C)c2c1"
  readout_value: "50.4 µM"
- compound: "O=S(=O)(Cc1ccccc1)NCc1cccnc1"
  readout_value: "> 100 µM (inactive)"
- compound: "COc1ccc(CNC(=O)CSc2nnc(-c3ccc(NC(C)=O)cc3)n2C)cc1"
  readout_value: "> 100 µM (inactive)"
- compound: "C/C(O)=c1/ccc2cccc3nc(C)nc1c23"
  readout_value: "17.6 µM"
- compound: "CCOC(=O)c1c(/N=C/c2cccc([N+](=O)[O-])c2O)sc(C)c1C"
  readout_value: "18.5 µM"
- compound: "Cc1cc(C)c2c(N=NN(C)C)[nH]nc2n1"
  readout_value: "12.2 µM"
